Listing of entries alongside the reported gcPBM binding intensity (ln).
Test system: PfAP2-G AP2 domain (GST-tagged)
test_method_notes: gcPBM binding intensity (ln(normalized median fluorescence intensity)); higher = stronger DNA binding
Over roughly 25,000 sequences, “ln(normalized median fluorescence intensity)” has its median near 10; the highest 2% begin near 12. Many of the other results were omitted from the sample, so the highest values are more common in it than they were.
Could you respond with only the numeric value?

Example entries and their recorded answers appear below.
ATATAAATATGACACACACACAAAAAAAATAAAGAC [CACACA_site6208]    10.3
AATAAAAAACTACAATATACAAAATTATTAAATCAA [GTGCAC_negctrl_site703]    9.56

Input: # gcPBM binding intensity (ln) lookup, item GCAGGCTAAAAAATTACACACGAAAAAAATGAATTT [CACACA_site3417]
Output: 9.86

* * *

System: PfAP2-G AP2 domain (GST-tagged)
test_method_notes: gcPBM binding intensity (ln(normalized median fluorescence intensity)); higher = stronger DNA binding
In all, about 25,000 sequences were measured (“ln(normalized median fluorescence intensity)”: median about 10, highest 2% from about 12 on). For the sample, the highest values were picked, then their nearest neighbours and some sequences at random.
Listing of entries alongside the reported gcPBM binding intensity (ln).
Could you respond with only the numeric value?

Example entries and their recorded answers appear below.
ATAAATAAATTTATACGTACACATAATATATATATA [XGTACX_site4634]    11.6
ATATATATATATATATGTACTCATATTTTATTATTT [XGTACX_site898]    11.4
ACCTTTATTGTATGAACACACATAAGCTGATACATC [CACACA_site4028]    10.2
TAGTATAAAATTATGTGTACACAAATATAACTTTTC [XGTACX_site5971]    11.6
AAAAAATACCAAAGGGGTACTTACACATAATACTTA [XGTACX_site2111]    11.4
TAAATTAATAAAAAGTGTACATAATATACATATATA [XGTACX_site8604]    11.3
CCCCATTTATCTTAAGCATGCCATGGTTTTAGATAT [TGCATGCA_site24]    10.6
AAATATATATATTTACGTACATATATACAAATAGAG [XGTACX_site6067]    11.4

Input: # gcPBM binding intensity (ln) lookup, item ATTTATATATATTTATGTACGTATTAATTTTTTTTT [XGTACX_site3877]
Output: 11.5

Input: Next sequence: TTTGAAAAAAATTAATGTACATTTGAAATGACATAT [XGTACX_site3902]
Output: 10.8

Input: Next sequence: AATATATAAATTGACACACACATATATACATATATA [CACACA_site1213]
Output: 10.1

Input: Next sequence: TATATTGCAAAAAGTACACACATAAATAAATACATA [CACACA_site6589]
Output: 11.6

* * *

System: PfAP2-G AP2 domain (GST-tagged)
test_method_notes: gcPBM binding intensity (ln(normalized median fluorescence intensity)); higher = stronger DNA binding
The full ranking holds about 25,000 sequences; the median of “ln(normalized median fluorescence intensity)” is about 10, and the highest 2% start at about 12. The sample holds the highest values, similar sequences and a random draw of the others, so the mix is not that of the screen.
Listing of entries alongside the reported gcPBM binding intensity (ln).

Example entries and their recorded answers appear below.
AATATACACCCGTGTACACAAATATTTACAAAACGT [CACACA_site4786]    11.7
CCATTTACAAAAAGGAGTACACAAATATATGTTTAA [XGTACX_site649]    11.6
TATTTATACTAATATGCATGTAATCGAAATACAGCT [TGCATGCA_site457]    9.69
TATAATTTATAAGTAGTGCATTTCTTTTCATTTTTA    10
AATATGGTTATATATATATATATATATATATATATT [GTGCAC_negctrl_site566]    9.67

Input: # gcPBM binding intensity (ln) lookup, item ATAATTAAATAAAAAAGTACACATACATCATAATGC [XGTACX_site7656]
Output: 11.5

Input: Next sequence: TTATTTTCAAAATGTTGTACACACAAAAAAAAAAAA [XGTACX_site3151]
Output: 11.4
